tested on: MS2 coat protein; test: apparent KD of MS2 coat protein; designed switch direction (-1 OFF switch, 1 ON switch): 1; higher = weaker reporter binding; settings: input ligand: FMN 200 uM
EXPERIMENTAL_READOUT: apparent KD of MS2 coat protein (nM)

* AUAGUUAGCGAAGGAUAUGGGAAAGGAAGUGUACCAGAAGGUCGGCUACUGGGCUUACAUGAGGAUCACCCAUGUCCCGGUAGC [PowerStrip SSNG 1.13] (Eterna round: R96, puzzle: Same State NG 1) | 10.1
* AUAGUUGCCGAAGGAUAUGAUGAUGAUCACACAUCAGAAGGUCGGCUAUUGGGUGGACAUGAGGAUCACCCGUGUUCUUUGGUC (Eterna round: R96, puzzle: Same State NG 1) | 96.1
* GUAGCAUACCGAGGAUAUUCAUAUUAAAUACAUGAGGAUCACCCAUGUAAGGCCAAAAGGCCUUGGGAGAAGGCGGAAUGCUAC [Xeonanis - 20 Mod3] (Eterna round: R96, puzzle: Same State NG 2) | 20.7
* AAAUAAAACACAGGAUAUGCAGCCAAUACGGCGGCAGAAGGGUGAGACAUGAGGAUCACCCAUGUACACGUCCCACAGACGUGC [Mabege] (Eterna round: R96, puzzle: Same State NG 1) | 426
* CUUUUUAAUGCAGGAUAUGAUCAACAUGAGGAUCACCCAUGUGGUGUUGUGAGUAAGGAGAGUGAUCAGAAGGGCAUCUCCUCA [SS-NG2-LRO06] (Eterna round: R96, puzzle: Same State NG 2) | 186
* GCGAAAGCGGUAGGAUAUCUAGGAUAUGGGAAGAGCUAAGCUUGGAAGUCACUUCACCCAGAAGGAGAGAAGGACACCGAAAGG [pwkr ssNG2 2FMN + F9.3] (Eterna round: R96, puzzle: Same State NG 2) | 2990
* GGUAGGUUACUACCAAACAUGAGGAUCACCCAUGUAAAUGGGAAGGAUAUGGUACCGUUUCGGUACCAGAAGGUCCAAAAUAUU [JL Fiskers NG3ss - 2 final mod] (Eterna round: R96, puzzle: Same State NG 3) | 418
* AAAGUGGGCUUAUUUGGAUUCUCGUCUGGACAUGAGGAUCACCCAUGUAGGCGCUUGGUCUGAGACUAAGCAGCCGA [Didiinso] (Eterna round: R96, puzzle: Sensor for hsa-mir-208a) | 113
* GGAAUAUGAUGUUACAUGAGGAUCACCCAUGUAGUAAUAACUAAGGAUAUCUGUUAUGAUUAAUAAGAGAAGGUAGGAUCAUAA [AK SSNG3-V2-9] (Eterna round: R96, puzzle: Same State NG 3) | 23.6
* GUAGCAUACCGAGGAUAUUCAUAUUAAAUUACAUGAGGAUCACCCAUGUAGGCCAAAAGGCCUUGGGAGAAGGCGGAAUGCUAC [Xeonanis - 20 Mod1] (Eterna round: R96, puzzle: Same State NG 2) | 18.8
* AUUGCUUACGCAGGAUAUGAUGUGGAAACUGCGUCAGAAGGGUGAACAGAAUCGUUGCAAGAAGACAUGAGGAUCACCCAUGUC [SameState NG1 #97] (Eterna round: R96, puzzle: Same State NG 1) | 42
* AUUAUUUAUGCAGGAUAUGAUUAACAUGAGGAUCACCCAUGUGGUGUUGUGAGUAAGGAGAGUGAUCAGAAGGGCAUUUCUUUU [JMF's solution 49] (Eterna round: R96, puzzle: Same State NG 2) | 596
* GCCGGCUGGUGAGGAUAUGGCACCUUAUUGGUGCCAGAAGGCAUGUCAAUUGACAUGAGGAUCACCCAUGUAUUGUCGUUGGCG [salish99_SSNG1_r04_608] (Eterna round: R96, puzzle: Same State NG 1) | 819
* ACAUGAGACCAAGGAUAUGUUGUACCUACAUGUGACAUGAGGAUCACCCAUGUGGUAAGUAUGAGGCAGAAGGUGGAGAUAUGU [Equivalence 26 - Jieux - Same State NG 2] (Eterna round: R96, puzzle: Same State NG 2) | 26.5
* AGAUGUUAAUUAGGAUAUGGACACAUGAGGAUCACCCAUGUAACGAAGAUACGAUGUGGUCAAGUCUAGAAGGGAUAGCUAACA [SameState NG2 #75] (Eterna round: R96, puzzle: Same State NG 2) | 39.9
* AUGGAGACCGGAGGAUAUGGACCAACAAUCGGUCCAGAAGGCUGCCCAUGGUAUACAUGAGGAUCACCCAUGUGGCCGCGGAGA [Eternabot solution 13] (Eterna round: R96, puzzle: Same State NG 1) | 65.8
* AUCAAAUACCUAGGAUAUAGUACACACAGCGGGCUAGAAGGAGGCGACCACGCUGACAUGAGGAUCACCCAUGUCCAACAGGAU [Eternabot solution 19] (Eterna round: R96, puzzle: Same State NG 1) | 48.9
* UGGCUCAGACGAGGAUAUGGUCAUGGCGCUUCGGCGCAUACAUGAGGAUCACCCAUGUAGGGUGAUCAGAAGGUGUCUGAGCCA [SSNG2/9-B2] (Eterna round: R96, puzzle: Same State NG 2) | 210

====

Item-by-item account of apparent KD of MS2 coat protein
test system: MS2 coat protein; test: apparent KD of MS2 coat protein; designed switch direction (-1 OFF switch, 1 ON switch): -1; higher = weaker reporter binding; conditions: input ligand: none
EXPERIMENTAL_READOUT: apparent KD of MS2 coat protein (nM)

• AGUUUACAUGAGGAUCACCCAUGUGAGGAUAUGGAUUCGCUGGCCGUAGCCAGUGGAUCCAGAAGGCGCAUGAU [JL-ex1-4.13] (Eterna round: R97, puzzle: Exclusion 1) = 86.3
• AGCUGUGGCCGAGGAUAUUGCGAACCAUGGAAAACCAUGGAAACUCUACAUGAGGAUCACCCAUGUAAGAAGGCGGUCUCAGCA [Eli eng2 - 025] (Eterna round: R96, puzzle: Exclusion NG 2) = 15.8
• GUCCGACAUGAGGAUCACCCAUGUGAGGAUAUGCGAUUAGCUGCUAGGUAGUUAGUAUGUAGAAGGUGCAUGAA [EX1 #75] (Eterna round: R97, puzzle: Exclusion 1) = 17.5
• UUUUUACAUGAGGAUCACCCAUGUGAGGAUAUGGUUUCGCUGGCCGUAGCCAGUGGAACCAGAAGGCGCAUGAU [Mat - Exclusion 1 - JL Mod - D8] (Eterna round: R97, puzzle: Exclusion 1) = 84.7
• UUAAAUCAUGUAGGAUAUGCGUGGCGAAGCUAUGCAGAAGGACAUGAGGAUCACCCAUGUGCUGCGGUCUGCGUACAGAUCGCU [JL ENG1 1.03] (Eterna round: R96, puzzle: Exclusion NG 1) = 142
• CAAACCUCAGGAUAUCGAGACUCGGACAUGAGGAUCACCCAUGUGAGGCUCGUGAGUCCACGAGAAGGGAGGAGCA [Eternabot (Original) Solution 38] (Eterna round: R97, puzzle: Exclusion 5) = 17.4
• UUUCGUGCGCGGGUUUUUUACAUGAGGAUCACCCAUGUCCUCUGCUUGUCUUGUCUUGGGCUUUUUUUGGGUUCGGG [-19.7, -39 kcal, A 8%] (Eterna round: R97, puzzle: Sensor, turn-off variant 1) = 868
• AAGUAUAGAGGAUAUAGUAGGUACAACAUGAGGAUCACCCAUGUUCUUCAUAACGUAUUUCUAGAAGGCUGAUAAA [EX-5 Malc#27] (Eterna round: R96, puzzle: Exclusion 5) = 126
• CCAUUCAGAGGAUAUGCGCAUAAAUAAGACUUUUUUUUUUAACAUGAGGAUCACCCAUGUAGAAGGCUGUAACC [Ex2 #46] (Eterna round: R97, puzzle: Exclusion 2) = 24.8
• UAACUAACUCCUCGGAGCAACAUGAGGAUCACCCAUGUUAUGAACAUUCGGUGUAACAGGAUGUUUGCUCGUCUGGA [Eternabot (Original) Solution 22] (Eterna round: R97, puzzle: Sensor, turn-off variant 1) = 259
• UUGAUGUGAGGAUAUAUUUAGUGUUUUCUUUAUGUUUUAUAACUUGAGGAUCACCCAAGUAGAAGGCGCUACGU [JR_Ex2_Sub066] (Eterna round: R97, puzzle: Exclusion 2) = 13.9
• UAUUAGCAAGCAAGAUCCUACAUGAGGAUCACCCAUGUGCUCGUCUUAAGCCCAGAAUUACUGGGCGCUCGUCUUAU [Winner reversed engineered 21] (Eterna round: R97, puzzle: Sensor, turn-off variant 1) = 684
• CUUUUGUGAGGAUAUUAGUAGUAAAUAAUUAAAAUUAUUACUGAGAAGGCACAUGAGGAUCACCCAUGUUCCUC [Salish 062 v15] (Eterna round: R97, puzzle: Exclusion 4) = 42.9
• AUGAACAAUGUAGGAUAUGCGUGGCGAAGCUAUGCAGAAGGACAUGAGGAUCACCCAUGUUCAAGCGUCUGCGUACAGAUGCUA [JL eng1 1.35 mod 7] (Eterna round: R96, puzzle: Exclusion NG 1) = 13.8
• AUGCUCCGUGUAGGAUAUCGCCGUAUUACUCGGCGAGAAGGACAUGAGGAUCACCCAUGUAUGUUAUUAUCACGUGUGGCGCGC [Design 46] (Eterna round: R96, puzzle: Exclusion NG 1) = 18.6
• CCAGCGUAUGUGAGGAUAUGCUGGUCCUUGGAUCAGCAGAAGGCACAUGAGGAUCACCCAUGUGGAAACGUUGG [Mod of JL 1 - Jieux - Brourd's mod of Exclusion 4] (Eterna round: R97, puzzle: Brourd's mod of Exclusion 4) = 24.3
• AUACCACGAGGAUAUCGUCUAUAAUACAUGAGGAUCACCCAUGUUAUAUCUGUAAUGUUUCGAGAAGGCGUGUGUU [JR_E5_Sub084] (Eterna round: R96, puzzle: Exclusion 5) = 21.3
• GUUUCACAUGAGGAUCACCCAUGUGAGGAUAUGUUUUUAAAAGCAAUAGUUUUUGAAAACAGAAGGCGCGUGAU [JR_Exc1_Sub008] (Eterna round: R97, puzzle: Exclusion 1) = 60.5
